system: Raoultella planticola; test: Antimicrobial activity against Klebsiella planticola MTCC 530 incubated for 24 hrs at 37 degC by well diffusion method; format: functional; conditions: MTCC 530, 24 h
readout: MIC (µM)
Give the value, in units of µM, as a plain number.

Example entries and their recorded answers appear below.
O=C(CBr)NCC1=Cc2ccccc2OC1(O)C(F)(F)F (stereo not given)	19.1
O=C(Cc1cccc(Cl)c1)NCC1=Cc2cc(Br)ccc2OC1(O)C(F)(F)F (stereo not given)	31.2

# input Provide measured MIC value, entry: O=C(Cc1ccc(Br)cc1)NCC1=Cc2cc(Br)ccc2OC1(O)C(F)(F)F (stereo not given)
# output 14.3

# input Provide measured MIC value, entry: O=C(O)c1cn(C2CC2)c2cc(N3CCNCC3)c(F)cc2c1=O [CIPROFLOXACIN]
# output 2.7

# input Provide measured MIC value, entry: O=C(Cc1ccccc1)NCC1=Cc2cc(Br)ccc2OC1(O)C(F)(F)F (stereo not given)
# output 33.6

Origin of the recorded values: ChEMBL document CHEMBL3596103
